target-of-assay: TAK1-TAB1 fusion protein (Homo sapiens, UniProt O43318)
Sequence (O43318 with tags, fused parts or gaps limits assumed): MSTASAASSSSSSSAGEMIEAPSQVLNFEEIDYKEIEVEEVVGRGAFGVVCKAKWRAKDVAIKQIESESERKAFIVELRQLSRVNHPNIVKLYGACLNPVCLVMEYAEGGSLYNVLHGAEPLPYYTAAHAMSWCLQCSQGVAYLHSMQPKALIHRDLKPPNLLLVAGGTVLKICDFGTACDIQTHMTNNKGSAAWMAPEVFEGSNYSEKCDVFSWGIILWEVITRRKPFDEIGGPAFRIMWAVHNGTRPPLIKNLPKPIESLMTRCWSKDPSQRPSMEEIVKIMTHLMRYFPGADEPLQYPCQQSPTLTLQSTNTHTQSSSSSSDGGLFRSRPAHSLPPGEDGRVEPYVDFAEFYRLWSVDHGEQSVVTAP
method-summary: In vitro TAK1 kinase assay (33P-ATP, casein substrate)
stated-conditions: semi-quantitative score, at least two independent experiments
# maps each entry to its IC50

compound | IC50
CN1CCN(c2ccc(Nc3ccc(-c4cn[nH]c4)n4ccnc34)cc2)CC1 | 101 to 1000 nM
O=c1cc(-c2ccc(Nc3ccc(N4CCN5CCCCC5C4)cc3)c3nccn23)cc[nH]1 (stereo not shown) | 101 to 1000 nM
O=c1cc(-c2ccc(Nc3ccc(N4CCC(N5CCC(O)CC5)CC4)cc3)c3nccn23)cc[nH]1 | 1000 to 3000 nM
O=c1cc(-c2ccc(Nc3ccc(C4CCNCC4)cc3)c3nccn23)cc[nH]1 | 101 to 1000 nM
CCC(CC)N1CCN(c2ccc(Nc3ccc(-c4ccc(C(N)=O)cc4)n4ccnc34)cc2)CC1 | 101 to 1000 nM
O=c1cc(-c2ccc(Nc3ccc(N4CCN(C5CCCCC5)CC4)cc3)c3nccn23)cc[nH]1 | 101 to 1000 nM
Fc1cc(Nc2ccc(-c3cn[nH]c3)n3ccnc23)ccc1N1CCOCC1 | 101 to 1000 nM
CC(C)N1CCN(c2ccc(Nc3ccc(-c4cc[nH]c(=O)c4)n4ccnc34)cc2F)CC1 | 101 to 1000 nM
CN(C)S(=O)(=O)c1ccc(Nc2ccc(-c3ccc4c(c3)CNC4=O)n3ccnc23)cc1 | 101 to 1000 nM
COCCNC(=O)c1ccc(Nc2ccc(-c3ccc4c(c3)CNC4=O)n3ccnc23)cc1 | 101 to 1000 nM

Give TAK1-TAB1 fusion protein (Homo sapiens, UniProt O43318) IC50 for CCC(CC)N1CCN(c2ccc(Nc3ccc(-c4cc[nH]c(=O)c4)n4ccnc34)cc2)CC1
101 to 1000 nM

Give TAK1-TAB1 fusion protein (Homo sapiens, UniProt O43318) IC50 for O=C1NCc2cc(-c3ccc(Nc4ccc(N5CCOCC5)cc4)c4nccn34)ccc21
101 to 1000 nM

Give TAK1-TAB1 fusion protein (Homo sapiens, UniProt O43318) IC50 for CC(=O)NCCNC(=O)c1ccc(Nc2ccc(-c3ccc4c(c3)CNC4=O)n3ccnc23)cc1
101 to 1000 nM

Give TAK1-TAB1 fusion protein (Homo sapiens, UniProt O43318) IC50 for CC1CCCN(C2CCN(c3ccc(Nc4ccc(-c5cc[nH]c(=O)c5)n5ccnc45)cc3)CC2)C1 (stereo not shown)
101 to 1000 nM

Give TAK1-TAB1 fusion protein (Homo sapiens, UniProt O43318) IC50 for CC(C)N1CCN(c2ccc(Nc3ccc(-c4cc[nH]c(=O)c4)n4ccnc34)cc2)CC1
< 100 nM

Give TAK1-TAB1 fusion protein (Homo sapiens, UniProt O43318) IC50 for CC(C)N1CCN(c2ccc(Nc3ccc(-c4csc(C(N)=O)c4)n4ccnc34)cc2F)CC1
1000 to 3000 nM
